Origin of values: ChEMBL document CHEMBL1151505

target: Amine oxidase [flavin-containing] A (Homo sapiens, UniProt P21397)
Sequence (P21397 whole entry): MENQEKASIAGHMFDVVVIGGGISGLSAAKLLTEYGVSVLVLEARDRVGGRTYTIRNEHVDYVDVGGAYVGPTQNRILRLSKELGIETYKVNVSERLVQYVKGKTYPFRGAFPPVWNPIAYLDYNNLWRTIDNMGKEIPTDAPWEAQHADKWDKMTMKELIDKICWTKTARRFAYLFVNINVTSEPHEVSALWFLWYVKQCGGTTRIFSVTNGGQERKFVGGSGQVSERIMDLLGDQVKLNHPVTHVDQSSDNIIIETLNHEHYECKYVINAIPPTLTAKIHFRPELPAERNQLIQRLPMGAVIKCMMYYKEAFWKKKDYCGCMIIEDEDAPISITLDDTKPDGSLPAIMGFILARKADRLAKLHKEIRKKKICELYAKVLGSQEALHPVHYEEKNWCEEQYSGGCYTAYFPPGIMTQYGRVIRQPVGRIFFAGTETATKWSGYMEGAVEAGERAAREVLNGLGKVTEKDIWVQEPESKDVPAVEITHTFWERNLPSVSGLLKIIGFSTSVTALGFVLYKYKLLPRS
pIC50: −log10 of the molar value.
Each entry gets not met if its pIC50 stays under 5, and met if its pIC50 is 5 or above.

Incoming: Tell me whether pIC50 is at least 5 here: CC/N=C1/CCc2c1n(C)c1ccc(OC(=O)NC)cc21
Outgoing: met

Incoming: Tell me whether pIC50 is at least 5 here: C/N=C1/CCc2c1n(C)c1ccc(OC(=O)NC)c(Br)c21
Outgoing: met

Incoming: Tell me whether pIC50 is at least 5 here: CNC(=O)Oc1ccc2c(c1)c1c(n2C)/C(=N\CCc2ccccc2)CC1
Outgoing: not met

Incoming: Tell me whether pIC50 is at least 5 here: C/N=C1/CCc2c1n(C)c1ccc(OC(=O)NC)c(Cl)c21
Outgoing: met

Others:
Incoming: Tell me whether pIC50 is at least 5 here: C/N=C1/CCc2c1n(C)c1ccccc21
Outgoing: met

Incoming: Tell me whether pIC50 is at least 5 here: Cn1c2c(c3ccccc31)CC/C2=N/Cc1ccncc1
Outgoing: not met
